protocol: chemical genetic growth profiling, strain panel (AID 1159580);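 further: tested at 20 µM; growth read once vehicle control cultures reached saturation at 30 °C; 1 = growth at the plate median or of vehicle wells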
condition.description: S. cerevisiae deletion strains, growth OD, locus YML032C, strain rad52, hits give low values
The whole screen tested about 5,500 compounds, of which about 2,000 (36%) were called active. Inconclusive results (about 18%) are left out. The list shows a part of the results.
Give normalized growth for every item shown.
Answers are plain numbers.

These recorded examples may help you get a feel for the data.
1. COc1cc([C@H]2Oc3cc([C@H]4Oc5cc(O)cc(O)c5C(=O)[C@@H]4O)ccc3O[C@@H]2CO)ccc1O 0.945
2. C[C@H](N)[C@H](O)c1ccccc1 0.984
3. C[C@@H](N)[C@@H](O)c1ccccc1 0.967
4. O=c1[nH]cnc2[nH]ncc12 1.01
5. C[C@H](N)[C@H](O)c1cccc(O)c1 1.01

Continue with the molecule presented below.
What value of normalized growth has been recorded for this entry: Cc1cc(O)c(C)c2c1C(=O)Oc1c(C)c(O)c(C(=O)O)c(C)c1O2 0.965

###

Give normalized growth for every item shown.
protocol: chemical genetic growth profiling, strain panel (AID 1159580)
condition.description: S. cerevisiae deletion strains, growth OD, locus YNL298W, strain CLA4, hits give low values
Among all 5,500 compounds or so, about 2,000 (36%) were called active. About 18% were inconclusive and are not listed. The list shows a part of the results.
One number for each entry.

compound	normalized growth
C[C@@H]1CC2C3C[C@H](F)C4=CC(=O)C=C[C@]4(C)[C@@]3(F)[C@@H](O)C[C@]2(C)[C@@]1(O)C(=O)COC(=O)C(C)(C)C (stereo not given in full)	0.998
Nc1cc(-c2ccncc2)c[nH]c1=O	0.988
C=C1C(C2(C)C=CC(=O)C(C)(C)C2CC(=O)OC)CC[C@@]2(C)[C@H](c3ccoc3)OC(=O)C3OC132 (stereo not given in full)	0.976
COc1cc(OC)c(OC)cc1C=O	0.987
COc1c2ccccc2nc2occc12	0.909

Batch of 5 compounds: report normalized growth for each.
1. CCCC(CCC)C(=O)O
2. C=C1C2CC[C@@]3(C)[C@H](c4ccoc4)OC(=O)C[C@]13O[C@H]1CC(=O)C(C)(C)C(CC(=O)OC)[C@@]21C (stereo not given in full)
3. C=C1[C@H]2CC[C@@]3(C)[C@H](c4ccoc4)OC(=O)C[C@]13O[C@H]1C[C@H](O)C(C)(C)[C@H](CC(=O)OC)[C@]12C
4. CC1CCC2(OC1)OC1CC3C4CCC5C[C@@H](O)CCC5(C)C4=CCC3(C)C1[C@@H]2C (stereo not given in full)
5. CC1(C)C(O)CC(O)C2(C)C1CC(O)C1(C)C2CCC2(C)C(c3ccoc3)OC(=O)C3OC321 (stereo not given)

1. 0.969
2. 1.01
3. 1.02
4. 0.98
5. 1.02

###

protocol: chemical genetic growth profiling, strain panel (AID 1159580)
condition.description: S. cerevisiae deletion strains, growth OD, locus YFL029C, strain CAK1, hits give low values
In all, about 5,500 compounds went through this assay and about 2,000 (36%) were called active. Not shown: some 18% with an inconclusive outcome. The list shows a part of the results.
parameter: normalized growth
One number for each entry.

Batch of 5 compounds: report normalized growth for each.
1. Cc1ccc(S(=O)(=O)Nc2ccc(Oc3ccc(F)cc3)cc2)cc1
2. CC1(C)c2ccccc2N(CCC(N)=O)C12C=Cc1c(ccc3ccccc13)O2 (stereo not given)
3. O=S(=O)(Nc1ccc(Oc2ccc(OC(F)(F)F)cc2)cc1)c1cccc(Cl)c1
4. COc1cc(CC/C(C)=N\O)ccc1OCc1ccc(Cl)c(Cl)c1
5. COc1ccc(CC2CCC(=NOC(=O)c3ccc(C(C)(C)C)cc3)CC2)cc1 (stereo not given)

[0.977, 0.964, 0.985, 0.968, 0.988]

###

protocol: chemical genetic growth profiling, strain panel (AID 1159580)
condition.description: S. cerevisiae deletion strains, growth OD, locus YNL153C, strain GIM3, hits give low values
About 2,000 (36%) of roughly 5,500 compounds were called active. Not shown: some 18% with an inconclusive outcome. This is one part of the list.
Lab note: compare normalized growth with 1, writing condition met if less and condition not met if equal or more.

compound	answer.label
CC(C)CCCC(C)C1CCC2C3CC[C@H]4CCCC[C@]4(C)C3CC[C@]12C (some centres undefined)	condition met
COc1ccc(CCN(C)CCc2ccc(OC)c(OC)c2)cc1OC	condition not met

Consider the compound S=C(Nc1ccccc1)Nc1nccs1 . Is its normalized growth strictly less than 1? condition met

###

protocol: chemical genetic growth profiling, strain panel (AID 1159580);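 further: tested at 20 µM; growth read once vehicle control cultures reached saturation at 30 °C; 1 = growth at the plate median or of vehicle wells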
condition.description: S. cerevisiae deletion strains, growth OD, locus YOR144C, strain elg1
The campaign covered roughly 5,500 compounds. About 2,000 (36%) were called active. Roughly 18% stayed inconclusive and do not appear here. No stated cut-off is given here; in the data, active means normalized growth mostly below about 0.91 (no sharp cut-off); inconclusive means no clear call, values can overlap the other calls; inactive means mostly above about 0.92. The list shows a part of the results.
A correct response names exactly one class from y = active, n = inactive

Solved entries (count: 3):
compound	answer.label
CCC(=O)Nc1ccc(Cl)c(Cl)c1	n
C=C[C@H]1CN2CC[C@H]1C[C@@H]2[C@H](O)c1ccnc2ccccc12	n
CC(=O)OCC(=O)[C@@]1(O)[C@H](OC(C)=O)CC2C3CCC4=CC(=O)C=C[C@]4(C)[C@@]3(F)[C@@H](O)C[C@@]21C (stereo not given in full)	n

Answer briefly: the call reported for CSc1ccc2c(c1)N(CCC1CCCCN1C)c1ccccc1S2 (stereo not given) in this assay. y

Answer briefly: the call reported for CN(C)C(=O)Nc1ccc(Cl)c(Cl)c1 in this assay. n

Answer briefly: the call reported for CN(C(=O)CN(CCO)CC(=O)N(C)C(C)(C)Cc1ccccc1)C(C)(C)Cc1ccccc1 in this assay. n

Answer briefly: the call reported for CC1CCC2(OC1)OC1CC3C4CCC5C[C@@H](O)CCC5(C)C4=CCC3(C)C1[C@@H]2C (stereo not given in full) in this assay. n

Answer briefly: the call reported for COc1c2ccccc2nc2occc12 in this assay. n

Answer briefly: the call reported for O=c1cc(-c2ccccc2)oc2cc(O)c(O)c(O)c12 in this assay. y

Answer briefly: the call reported for C[C@]12C=CC(=O)C=C1CCC1C3C[C@@H](O)[C@](O)(C(=O)CO)[C@@]3(C)C[C@H](O)[C@@]12F (stereo not given in full) in this assay. n

###

Give normalized growth for every item shown.
protocol: chemical genetic growth profiling, strain panel (AID 1159580);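 further: tested at 20 µM; growth read once vehicle control cultures reached saturation at 30 °C; 1 = growth at the plate median or of vehicle wells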
condition.description: S. cerevisiae deletion strains, growth OD, locus YMR129W, hits give low values
Out of some 5,500 compounds screened, about 2,000 (36%) were called active. Not shown: some 18% with an inconclusive outcome. The list shows a part of the results.
One number for each entry.

These recorded examples may help you get a feel for the data.
molecule	observed.result
CC[C@H](CCC(C)[C@H]1CCC2C3CCC4C[C@@H](O)CC[C@]4(C)C3CC[C@@]21C)C(C)C (stereo partly specified)	0.982
Clc1ccc2c(c1)C(N1CCNCC1)=Nc1ccccc1O2	1.01
Cc1cc(=O)oc2c(O)c(O)ccc12	0.976
CC(=O)N=c1sc(S(N)(=O)=O)nn1C	1.01
C=C[C@H]1CN2CC[C@H]1C[C@@H]2[C@H](O)c1ccnc2ccccc12	0.988
CCN(CCCc1ccccc1)CCCc1ccccc1	0.984

Batch of 8 molecules: report normalized growth for each.
1. COc1ccc(C(=O)CC(=O)c2ccc(C(C)(C)C)cc2)cc1
2. CC(CN(C)C)CN1c2ccccc2Sc2ccccc21 (stereo unspecified)
3. O=c1cc(-c2ccccc2)oc2cc(O)cc(O)c12
4. CN(C)CCOC(=O)COc1ccc(Cl)cc1
5. COC(=O)CCC(C)C1CCC2C3CC[C@@H]4C[C@H](O)CC[C@]4(C)C3C[C@H](O)[C@]12C (stereo partly specified)
6. NS(=O)(=O)c1cc2c(cc1Cl)NC(C1CC3C=CC1C3)NS2(=O)=O (stereo unspecified)
7. NC(=O)c1ncn(C2O[C@H](CO)[C@@H](O)[C@H]2O)c1N (stereo partly specified)
8. COc1cc([C@@H]2c3cc4c(cc3[C@H](OC(C)=O)[C@H]3COC(=O)[C@@H]23)OCO4)cc(OC)c1OC

[0.983, 1.02, 0.94, 0.973, 1, 0.981, 1.03, 1]

Batch of 2 molecules: report normalized growth for each.
1. CC(CCC(=O)O)[C@H]1CCC2C3CC[C@@H]4CCCC[C@]4(C)C3CC[C@@]21C (stereo partly specified)
2. C[C@H](N)[C@H](O)c1cccc(O)c1

1: 1; 2: 1

Batch of 2 molecules: report normalized growth for each.
1. CC(=O)Nc1nnc(S(N)(=O)=O)s1
2. CCCCC[C@H](CC(=O)NO)C(=O)N[C@H](C(=O)N1CCC[C@H]1CO)C(C)C

1. 1.02
2. 1.01

###

Give normalized growth for every item shown.
protocol: chemical genetic growth profiling, strain panel (AID 1159580);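 further: tested at 20 µM; growth read once vehicle control cultures reached saturation at 30 °C; 1 = growth at the plate median or of vehicle wells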
condition.description: S. cerevisiae deletion strains, growth OD, locus YLR258W, strain gsy2, hits give low values
About 2,000 (36%) of roughly 5,500 compounds were called active. Inconclusive results (about 18%) are left out. This is one part of the list.

These recorded examples may help you get a feel for the data.
compound	normalized growth
CC(CCC(=O)O)[C@H]1CCC2C3C(C[C@H](O)[C@@]21C)[C@@]1(C)CC[C@@H](O)C[C@H]1C[C@H]3O (some centres not stated)	1.04 (inactive)
NS(=O)(=O)c1cc2c(cc1Cl)NC(C1CC3C=CC1C3)NS2(=O)=O (configuration not stated)	0.98 (inactive)
N#C/C(=C\c1cccc(O)c1)C(=O)O	0.977 (inactive)
CSc1ccc2c(c1)N(CCC1CCCCN1C)c1ccccc1S2 (configuration not stated)	0.941 (inactive)
c1ccc2c(c1)CN1CCCC1=N2	1 (inactive)
CC(=O)O[C@H]1C[C@@H](OC(C)=O)C(C)(C)C2CC(=O)[C@]3(C)C(CC[C@@]4(C)[C@H](c5ccoc5)OC(=O)[C@H]5O[C@]543)[C@]21C (some centres not stated)	1 (inactive)
CC[C@H](CCC(C)[C@H]1CCC2C3CCC4C[C@@H](O)CC[C@]4(C)C3CC[C@@]21C)C(C)C (some centres not stated)	0.988 (inactive)
COc1cc(S(C)=O)ccc1-c1nc2ncccc2[nH]1 (configuration not stated)	0.93 (inactive)
O=c1cc(-c2ccc(O)cc2)oc2cc(O)ccc12	0.956 (inactive)
CCC(=O)Nc1ccc(Cl)c(Cl)c1	0.996 (inactive)

Batch of 7 compounds: report normalized growth for each.
1. Cc1cc(=O)oc2c(O)c(O)ccc12
2. CCCC(C(=O)OCCN(CC)CC)(c1ccccc1)c1ccccc1
3. COC(=O)CCC(C)[C@H]1CCC2C3C(C[C@H](O)[C@@]21C)[C@@]1(C)CC[C@@H](O)C[C@H]1C[C@H]3O (some centres not stated)
4. O=c1cc(-c2ccccc2)oc2cc(O)c(O)cc12
5. CCN(CC)CCOC(=O)C(c1ccccc1)c1ccccc1
6. O=c1[nH]cnc2[nH]ncc12
7. COC(=O)CCC(C)C1CCC2C3CC[C@@H]4C[C@H](O)CC[C@]4(C)C3C[C@H](O)[C@]12C (some centres not stated)

0.986 (inactive)
0.989 (inactive)
1.03 (inactive)
0.953 (inactive)
0.963 (inactive)
1 (inactive)
0.958 (inactive)
